Source of measurements: ChEMBL document CHEMBL5291721

Target: UniProtKB P21397
Sequence (P21397 whole entry): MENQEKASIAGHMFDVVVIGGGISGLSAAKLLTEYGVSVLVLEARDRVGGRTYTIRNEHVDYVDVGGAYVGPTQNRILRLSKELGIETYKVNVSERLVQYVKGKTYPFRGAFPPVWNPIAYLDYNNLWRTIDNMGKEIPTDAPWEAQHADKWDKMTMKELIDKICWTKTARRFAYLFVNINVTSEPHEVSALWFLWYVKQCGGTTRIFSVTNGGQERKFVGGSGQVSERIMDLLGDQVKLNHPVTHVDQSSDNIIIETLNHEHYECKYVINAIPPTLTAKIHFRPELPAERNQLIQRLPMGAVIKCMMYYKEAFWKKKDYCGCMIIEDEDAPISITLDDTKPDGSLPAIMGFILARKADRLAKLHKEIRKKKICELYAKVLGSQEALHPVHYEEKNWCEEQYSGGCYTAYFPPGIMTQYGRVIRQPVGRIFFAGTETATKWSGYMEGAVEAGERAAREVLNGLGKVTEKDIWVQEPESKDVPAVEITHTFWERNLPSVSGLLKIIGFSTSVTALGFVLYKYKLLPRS
Assay type: functional
measured quantity: AC50

| molecule | test value |
| --- | --- |
| Cc1ccccc1C(=O)Nc1ccc(C(=O)N2CCCC(N(C)C)c3ccccc32)cc1 (stereo not given) [MOZAVAPTAN] | > 30 µM |
| CN1CCN(C2=Nc3ccccc3Oc3ccc(Cl)cc32)CC1 [LOXAPINE] | > 30 µM |
| C=CCSCC1Nc2cc(Cl)c(S(N)(=O)=O)cc2S(=O)(=O)N1 (stereo not given) [ALTHIAZIDE] | > 30 µM |
| OC[C@H]1O[C@@H](c2ccc(F)c(Cc3cc4ccccc4s3)c2)[C@H](O)[C@@H](O)[C@@H]1O [IPRAGLIFLOZIN] | > 30 µM |
| CN1C(C(=O)Nc2ccccn2)=C(O)c2ccccc2S1(=O)=O [PIROXICAM] | > 30 µM |
